# Experiment Summary: Drug-drug interaction study: bardoxolone methyl alone and with itraconazole in healthy volunteers
# Measurement Context: human, plasma, oral, Vz/F, Mean, Period 2: single 10 mg bardoxolone methyl with daily 200 mg itraconazole, plasma, n = 15
Measurement Type: Vd/F (L)
Answers are plain numbers, in L.

In: GET /values?readout=Vd/F&item= COC(=O)[C@]12CCC(C)(C)C[C@H]1[C@H]1C(=O)C=C3[C@@]4(C)C=C(C#N)C(=O)C(C)(C)[C@@H]4CC[C@@]3(C)[C@]1(C)CC2 [Bardoxolone methyl]
Out: 5900

---

# Experiment Summary: Drug-drug interaction study: bardoxolone methyl alone and with itraconazole in healthy volunteers
# Measurement Context: human, plasma, oral, AUC0-t, Geom. Mean, Bardoxolone Methyl + Itraconazole (B), paired analysis n = 15
Measurement Type: AUC(0-t) (ng·h/mL)
Numbers only, in ng·h/mL.

In: Would you mind telling me what AUC(0-t) value was observed for COC(=O)[C@]12CCC(C)(C)C[C@H]1[C@H]1C(=O)C=C3[C@@]4(C)C=C(C#N)C(=O)C(C)(C)[C@@H]4CC[C@@]3(C)[C@]1(C)CC2 ?
Out: 220
